UniProt:P0AES4: recorded IC50 for assorted molecules
Sequence (P0AES4 whole entry): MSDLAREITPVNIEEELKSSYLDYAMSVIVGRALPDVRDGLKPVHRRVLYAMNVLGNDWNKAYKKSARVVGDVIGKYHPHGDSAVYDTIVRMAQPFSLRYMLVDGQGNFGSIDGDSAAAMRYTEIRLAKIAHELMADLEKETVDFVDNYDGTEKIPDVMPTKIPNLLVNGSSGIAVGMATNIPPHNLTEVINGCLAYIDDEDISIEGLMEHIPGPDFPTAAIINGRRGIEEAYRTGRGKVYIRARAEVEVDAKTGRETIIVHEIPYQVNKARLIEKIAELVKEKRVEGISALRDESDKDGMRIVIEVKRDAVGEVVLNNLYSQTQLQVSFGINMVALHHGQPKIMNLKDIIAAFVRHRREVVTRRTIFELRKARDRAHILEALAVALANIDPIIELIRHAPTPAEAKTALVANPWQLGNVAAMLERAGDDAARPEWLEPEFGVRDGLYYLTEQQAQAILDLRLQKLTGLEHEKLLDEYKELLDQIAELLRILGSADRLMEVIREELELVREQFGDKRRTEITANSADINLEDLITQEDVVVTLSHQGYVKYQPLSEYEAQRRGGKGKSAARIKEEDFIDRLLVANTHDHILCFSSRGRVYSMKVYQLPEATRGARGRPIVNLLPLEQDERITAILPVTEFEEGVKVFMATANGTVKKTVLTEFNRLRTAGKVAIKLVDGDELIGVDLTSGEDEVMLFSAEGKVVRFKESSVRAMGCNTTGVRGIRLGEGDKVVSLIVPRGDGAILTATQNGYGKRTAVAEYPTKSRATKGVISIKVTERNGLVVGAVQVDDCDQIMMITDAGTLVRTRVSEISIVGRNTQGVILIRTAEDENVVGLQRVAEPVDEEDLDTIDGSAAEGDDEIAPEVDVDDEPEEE

## Input IC50 for COc1ccc2nccc(CCN3CCC(NCc4c(C)nc5c(C)cccn45)CC3)c2n1 [Compound 6] ?
## Output > 100 µM

## Input IC50 for COc1ccc2nccc(CCN3CCC(NCc4nc5ccccc5n4C)CC3)c2n1 [Compound 3] ?
## Output > 100 µM

## Input IC50 for COc1ccc2nccc(CCN3CCC(NCc4ccc(C(N)=O)cc4)CC3)c2n1 [Compound 17] ?
## Output > 100 µM

## Input IC50 for COc1ccc2nccc(CCN3CCC(NC(=O)c4cn5cccc(C#N)c5n4)CC3)c2n1 [Compound 7] ?
## Output > 100 µM

* * *

# Test system: S. pneumoniae (QA-10/02)
# Assay Info: MIC broth microdilution, S. pneumoniae
# Type: cell-based
# Test Context: Streptococcus pneumoniae
Lab note: compare MIC with 2 µg/mL, writing Y if less and N if equal or more.

## Input Regarding COc1ccc2nccc(CCN3CCC(NCc4ccc(OC(F)F)c(O)c4)CC3)c2n1 [Compound 20] , kindly confirm whether its MIC is beneath 2 µg/mL.
## Output Y

## Input Regarding COc1ccc2nccc(CCN3CCC(NCc4cnn(-c5ccc(F)cc5)c4)CC3)c2n1 [Compound 4] , kindly confirm whether its MIC is beneath 2 µg/mL.
## Output N

## Input Regarding C=CCn1cc(CNC2CCN(CCc3ccnc4ccc(OC)nc34)CC2)cn1 [Compound 10] , kindly confirm whether its MIC is beneath 2 µg/mL.
## Output Y

## Input Regarding COc1ccc2nccc(CCN3CCC(NCc4cnn(C(C)C)c4)CC3)c2n1 [Compound 9] , kindly confirm whether its MIC is beneath 2 µg/mL.
## Output Y

## Input Regarding COc1ccc2nccc(CCN3CCC(NCc4ccc(C(F)(F)F)nc4)CC3)c2n1 [Compound 21] , kindly confirm whether its MIC is beneath 2 µg/mL.
## Output Y

## Input Regarding COc1ccc2nccc(CCN3CCC(NCc4cnn(-c5ccccc5)n4)CC3)c2n1 [Compound 8] , kindly confirm whether its MIC is beneath 2 µg/mL.
## Output Y

## Input Regarding COc1ccc2nccc(CCN3CCC(NCc4ccc(C(N)=O)cc4)CC3)c2n1 [Compound 17] , kindly confirm whether its MIC is beneath 2 µg/mL.
## Output N

## Input Regarding COc1ccc2nccc(CCN3CCC(NCc4cnn(-c5ccccc5)c4)CC3)c2n1 [Compound 5] , kindly confirm whether its MIC is beneath 2 µg/mL.
## Output Y

## Input Regarding COc1ccc2nccc(CCN3CCC(NCc4c(C)nc5c(C)cccn45)CC3)c2n1 [Compound 6] , kindly confirm whether its MIC is beneath 2 µg/mL.
## Output N

* * *

S. aureus Topo IV (Staphylococcus aureus, UniProt Q2FYS4): recorded pIC50 for assorted molecules
Sequence (Q2FYS5 whole entry): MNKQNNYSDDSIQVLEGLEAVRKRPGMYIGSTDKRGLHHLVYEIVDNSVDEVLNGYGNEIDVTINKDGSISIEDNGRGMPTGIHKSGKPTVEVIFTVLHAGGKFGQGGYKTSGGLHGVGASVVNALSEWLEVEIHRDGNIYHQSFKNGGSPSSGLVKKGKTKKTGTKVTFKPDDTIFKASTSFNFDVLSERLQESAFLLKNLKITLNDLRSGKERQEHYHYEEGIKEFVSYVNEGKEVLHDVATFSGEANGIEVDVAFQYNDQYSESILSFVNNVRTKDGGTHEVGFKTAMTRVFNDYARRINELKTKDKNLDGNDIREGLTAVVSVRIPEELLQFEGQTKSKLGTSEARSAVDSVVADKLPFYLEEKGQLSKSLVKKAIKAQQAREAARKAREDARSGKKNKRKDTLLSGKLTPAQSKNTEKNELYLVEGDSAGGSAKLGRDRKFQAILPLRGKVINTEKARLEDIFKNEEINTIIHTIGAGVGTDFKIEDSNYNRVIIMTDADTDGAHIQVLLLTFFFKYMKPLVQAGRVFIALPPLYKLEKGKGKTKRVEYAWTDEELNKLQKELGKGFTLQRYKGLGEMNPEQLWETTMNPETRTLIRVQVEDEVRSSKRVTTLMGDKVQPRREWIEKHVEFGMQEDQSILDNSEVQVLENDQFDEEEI
Sequence (Q2FYS4 whole entry): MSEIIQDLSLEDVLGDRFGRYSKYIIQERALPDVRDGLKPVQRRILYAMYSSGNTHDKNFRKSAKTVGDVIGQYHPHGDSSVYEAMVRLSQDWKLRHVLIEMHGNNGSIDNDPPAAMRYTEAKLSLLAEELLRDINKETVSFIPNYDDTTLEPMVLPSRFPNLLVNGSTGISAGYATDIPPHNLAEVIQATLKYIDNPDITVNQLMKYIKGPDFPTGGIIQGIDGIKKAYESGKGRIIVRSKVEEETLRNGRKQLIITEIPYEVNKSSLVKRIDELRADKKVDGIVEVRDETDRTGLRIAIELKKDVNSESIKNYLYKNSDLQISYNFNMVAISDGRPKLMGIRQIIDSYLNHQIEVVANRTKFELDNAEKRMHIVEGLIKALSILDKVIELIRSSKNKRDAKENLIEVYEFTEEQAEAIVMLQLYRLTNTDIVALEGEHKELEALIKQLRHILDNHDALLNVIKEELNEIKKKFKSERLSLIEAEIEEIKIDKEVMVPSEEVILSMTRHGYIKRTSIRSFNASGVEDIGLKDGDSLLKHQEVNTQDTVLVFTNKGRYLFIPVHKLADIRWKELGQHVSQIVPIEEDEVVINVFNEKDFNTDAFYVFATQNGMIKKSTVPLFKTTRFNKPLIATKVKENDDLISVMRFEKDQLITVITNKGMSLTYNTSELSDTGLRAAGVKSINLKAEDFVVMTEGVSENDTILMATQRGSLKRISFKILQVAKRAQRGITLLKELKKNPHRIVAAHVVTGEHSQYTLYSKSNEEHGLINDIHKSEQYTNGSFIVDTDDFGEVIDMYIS
# pIC50 is unitless: minus log10 of the molar concentration; print number only

## Input # get_value(readout= pIC50, system= S. aureus Topo IV (Staphylococcus aureus, UniProt Q2FYS4)) for `COc1ccc2nccc(CCN3CCC(NCc4ccc(C(F)(F)F)nc4)CC3)c2n1`
## Output 4.73

## Input # get_value(readout= pIC50, system= S. aureus Topo IV (Staphylococcus aureus, UniProt Q2FYS4)) for `COc1ccc2nccc(CCN3CCC(NCc4cnn(-c5ccccc5)c4)CC3)c2n1`
## Output 4.53

## Input # get_value(readout= pIC50, system= S. aureus Topo IV (Staphylococcus aureus, UniProt Q2FYS4)) for `COc1ccc2nccc(CCN3CCC(NCc4ccc(OC(F)F)c(OC)c4)CC3)c2n1`
## Output 4.54

* * *

# System: E. coli N43 (CGSC# 5583)
# Assay Info: MIC broth microdilution, E. coli N43
# Assay type: cell-based
# Test Context: Escherichia coli, read-out: E. coli N43 MIC in molar
Assay Readout: MIC (µM)
Express it in µM; write the number only.

## Input # get_value(readout= MIC, system= E. coli N43 (CGSC# 5583)) for COc1ccc2nccc(CCN3CCC(NCc4cnn(-c5ccccc5)c4)CC3)c2n1 [Compound 5]
## Output 2.26

## Input # get_value(readout= MIC, system= E. coli N43 (CGSC# 5583)) for COc1ccc2nccc(CCN3CCC(NCc4nc5ccccc5n4C)CC3)c2n1 [Compound 3]
## Output 37.2

## Input # get_value(readout= MIC, system= E. coli N43 (CGSC# 5583)) for C=CCn1cc(CNC2CCN(CCc3ccnc4ccc(OC)nc34)CC2)cn1 [Compound 10]
## Output 2.46

* * *

# Test system: S. agalactiae RDK 047 (QA-990/02)
# Assay Info: MIC broth microdilution, S. agalactiae
# Assay type: cell-based
# Test Context: Streptococcus agalactiae; read-out: MIC S. agalactiae RDK 047 (QA-990/02)
# Procedure: Antimicrobial testing was carried out by the broth microdilution method in 96-well plate format following the Clinical and Laboratory Standards Institute (CLSI) guidelines and European Committee on Antimicrobial Susceptibility Testing (EUCAST) recommendations. […] After incubation the minimal inhibitory concentration (MIC) values were determined by visual inspection as the lowest dilution of compounds showing no turbidity. […]
Please go through the items and note down their MIC.

## Input MIC for `COc1ccc2nccc(CCN3CCC(NCc4ccc(OC(F)F)c(OC)c4)CC3)c2n1` ?
## Output < 1 µg/mL

## Input MIC for `COc1ccc2nccc(CCN3CCC(NCc4ccc(C(N)=O)cc4)CC3)c2n1` ?
## Output > 128 µg/mL

## Input MIC for `COc1ccc2nccc(CCN3CCC(NCc4nc5ccccc5n4C)CC3)c2n1` ?
## Output < 1 µg/mL

## Input MIC for `COc1ccc2nccc(CCN3CCC(NCc4ccc(CO)cc4)CC3)c2n1` ?
## Output 8 µg/mL

## Input MIC for `COc1ccc2nccc(CCN3CCC(NCc4cnn(-c5ccccc5)n4)CC3)c2n1` ?
## Output 0.5 µg/mL

## Input MIC for `COc1ccc2nccc(CCN3CCC(NCc4ccc(OC(F)F)c(O)c4)CC3)c2n1` ?
## Output 2 µg/mL

* * *

# System: S. pneumoniae (QA-10/02)
# Assay Info: MIC broth microdilution, S. pneumoniae
# Assay type: cell-based
# Test Context: Streptococcus pneumoniae
Please go through the items and note down their MIC.
Express it in µg/mL; write the number only.

## Input MIC for `COc1ccc2nccc(CCN3CCC(NCc4nc5ccccc5n4C)CC3)c2n1` ?
## Output 2

## Input MIC for `COc1ccc2nccc(CCN3CCC(NCc4ccc(OC(F)F)c(OC)c4)CC3)c2n1` ?
## Output 2

## Input MIC for `COc1ccc2nccc(CCN3CCC(NCc4ccc(CO)cc4)CC3)c2n1` ?
## Output 2
